Test system: K562 CRISPRi cells
TEST: Perturb-seq pooled growth measurement (sgRNA counts, growth phenotype γ, relative activity)
Assay type: cell-based, human
CONDITIONS USED: sequencing read counts; T0 = day two after transduction
Field: Perturb-seq pooled growth sgRNA counts, T0. Provide a value for each of the substances that follow.
Give bare numbers.

SUBSTANCE	READING
RPL9_+_39460483.23-P1P2_00: sgRNA targeting RPL9, GGATGTTTCTGTGCTCGTGG, SEQ ID NO: 5 (listed as DNA, chemistry not fully specified)	10355
RPS15_−_1438413.23-P1P2_00: sgRNA targeting RPS15, GACCAAAGCGATCTCTTCTG, SEQ ID NO: 60 (listed as DNA, chemistry not fully specified)	6757
RAN_+_131356438.23-P1P2_12: sgRNA targeting RAN, GGCGGTCGCTGCGCTTAGGT, SEQ ID NO: 73 (listed as DNA, chemistry not fully specified)	7627

// input: 4 substances below; output: Perturb-seq pooled growth sgRNA counts, T0 for each
1. RAN_+_131356438.23-P1P2_00: sgRNA targeting RAN, GGCGGTCGCTGCGCTTAGGG, SEQ ID NO: 69 (listed as DNA, chemistry not fully specified)
2. HSPE1_+_198365089.23-P1P2_00: sgRNA targeting HSPE1, GGAGACTCGCAGTCCGGCCC, SEQ ID NO: 9 (listed as DNA, chemistry not fully specified)
3. ATP5E_−_57607036.23-P1P2_04: sgRNA targeting ATP5E, GGTGTCCAGGAGCACTCTGT, SEQ ID NO: 154 (listed as DNA, chemistry not fully specified)
4. GATA1_−_48645022.23-P1P2_06: sgRNA targeting GATA1, GTGAGCTTGCGACATCCCCA, SEQ ID NO: 123 (listed as DNA, chemistry not fully specified)

1. 5444
2. 6813
3. 7209
4. 9440

// input: 2 substances below; output: Perturb-seq pooled growth sgRNA counts, T0 for each
1. POLR2H_+_184081251.23-P1P2_08: sgRNA targeting POLR2H, GGGGCCACGCGAGCAGCAGA, SEQ ID NO: 116 (listed as DNA, chemistry not fully specified)
2. CDC23_−_137548987.23-P1P2_00: sgRNA targeting CDC23, GACAGCCACCGGGACCATGG, SEQ ID NO: 18 (listed as DNA, chemistry not fully specified)

[6134, 8182]

Name the reported Perturb-seq pooled growth sgRNA counts, T0 value associated with the substance GNB2L1_+_180670873.23-P1P2_13: sgRNA targeting GNB2L1, GTGCAAGGCGGCGGCGGGAG, SEQ ID NO: 57 (listed as DNA, chemistry not fully specified) 4708

// provenance: patent US20220259593A1
